B1: MYBL2 (parent)
chain: FPNRTDQQCQYRWLRVLNPDLVKG

Variants of: B1
ASSAY PROCEDURE: protein stability index of a GFP-peptide fusion (GPS, HEK-293T) (PSI 1-6); higher = more stable;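 further: lentivirally expressed fusions sorted by FACS into six bins by GFP to DsRed ratio, PSI derived from sequencing read proportions per bin multiplied by bin number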
EXPERIMENTAL SETUP: c terminus: a fixed tail appended
I would appreciate it if you labelled entries t when protein stability index is 2 or higher, otherwise f.

# input Is protein stability index at least 2? Consider Q8H
# output t

# input Evaluate G24F : protein stability index at minimum 2?
# output f

# input Reported protein stability index reaches at least 2 for F1P ?
# output t

# input Is it the case that N3W has protein stability index reaching or exceeding 2?
# output f

# input Identify whether the reported protein stability index of the following variant is 2 or greater: N3G
# output f

# input Quick check: does L14K have protein stability index greater than or equal to 2?
# output t

# input In plain terms: is recorded protein stability index at least 2 for L14D ?
# output t

# input Dear colleague, could you confirm whether R4G has protein stability index at or above 2?
# output f

# input Determine whether measured protein stability index meets or exceeds 2 for F1V
# output t

# input Kindly determine if protein stability index recorded for N18D is above or exactly 2.
# output t

# input Has R15F a recorded protein stability index greater than or equal to 2?
# output t

# input Could you verify whether the entry T5I shows protein stability index of no less than 2?
# output t

# input Determine whether this variant has protein stability index no lower than 2: V22F
# output f

# input protein stability index >= 2 for P19K ?
# output t

# input Reported protein stability index reaches at least 2 for G24M ?
# output t

# input Decide: is the reported value of protein stability index for T5L equal to or greater than 2?
# output f

# input API: above_or_equal(metric=protein stability index, cutoff=2) for item R12N
# output f

# input Please tell me: is the variant V16W at or over 2 in terms of protein stability index?
# output t

# input Is it the case that Q10V has protein stability index reaching or exceeding 2?
# output f

# input Determine whether this variant has protein stability index no lower than 2: Y11C
# output t

Hello, the source for this data is the supplement of paper PMC10567573, in case you need it.
